- Tested on: SH-SY5Y cells
- measurement_protocol: Mitochondrial membrane potential (rhodamine 123), KE2 assay
- Format: cell-based, human
- assay_context: Homo sapiens; SH-SY5Y differentiated 6 days, treated 24 h, rhodamine-123; read-out: pEC25 MMP (concentration where MMP was reduced by 25%) (converted)
Mark Criterion not met for EC25 values under 300 nM, and Criterion met for everything at or above.

CC1=C(C(=O)Nc2ccccc2)SCCO1    Criterion met

Problem: Assess whether reported EC25 for CCCCCC[C@H]1C(=O)O[C@H](C)[C@H](NC(=O)c2cccc(NC=O)c2O)C(=O)O[C@@H](C)[C@@H]1OC(=O)CC(C)C [Antimycin A] sits at 300 nM or higher.
Result: Criterion not met

Problem: Assess whether reported EC25 for Cc1nc(C(F)(F)F)c(C(=O)Nc2c(Br)cc(OC(F)(F)F)cc2Br)s1 [Thifluzamide] sits at 300 nM or higher.
Result: Criterion met

Problem: Assess whether reported EC25 for CCc1nn(C)c(C(=O)NCc2ccc(C(C)(C)C)cc2)c1Cl sits at 300 nM or higher.
Result: Criterion met

Problem: Assess whether reported EC25 for CCOCCc1ccc(OCCN=c2[nH]cnc(CC)c2Cl)c(C)c1C sits at 300 nM or higher.
Result: Criterion met

Problem: Assess whether reported EC25 for Cc1ccc(-c2c(Cl)nc(C#N)n2S(=O)(=O)N(C)C)cc1 sits at 300 nM or higher.
Result: Criterion not met

Problem: Assess whether reported EC25 for COc1cc2c(cc1OC)[C@@H]1C(=O)c3ccc4c(c3O[C@@H]1CO2)C=CC(C)(C)O4 sits at 300 nM or higher.
Result: Criterion met

Problem: Assess whether reported EC25 for Cc1ccccc1C(=O)Nc1cccc(OC(C)C)c1 sits at 300 nM or higher.
Result: Criterion met

Problem: Assess whether reported EC25 for COc1cc(CNC(=O)CCCC/C=C/C(C)C)ccc1O sits at 300 nM or higher.
Result: Criterion met

Problem: Assess whether reported EC25 for COC(=O)N(OC)c1ccccc1COc1ccn(-c2ccc(Cl)cc2)n1 sits at 300 nM or higher.
Result: Criterion met

----------
Please go through the items and note down their Ratios of EC25 KE4/KE1 complex assay.
- Tested on: MRC complex (cI, cII or cIII)
- measurement_protocol: HepG2-based MRC complex assay in permeabilized cells (earlier study)
- Format: cell-based
- assay_context: NeuriTox neurite EC25 relative to complex assay EC25 in permeabilized cells; respirometric data from HepG2-based assays ref van der Stel et al. 2020
One number for each entry.

Example molecules with recorded Ratios of EC25 KE4/KE1 complex assay:
CO/C=C(/C(=O)OC)c1ccccc1COc1cccc(C(F)(F)F)n1    31.6
CCOCCc1ccc(OCCN=c2[nH]cnc(CC)c2Cl)c(C)c1C    15850
CC1=C(C(=O)Nc2ccccc2)SCCO1    32

Let's switch to this molecule now.
Problem: Record request: Ratios of EC25 KE4/KE1 complex assay value, item C=C(C)[C@H]1Cc2c(ccc3c2O[C@@H]2COc4cc(OC)c(OC)cc4[C@@H]2C3=O)O1
Result: 7.9

----------
Please go through the items and note down their EC25.
- Test system: LUHMES cells
- measurement_protocol: Intracellular ATP content after NeuriTox exposure
- Format: cell-based
- assay_context: Homo sapiens; NeuriTox exposure scheme, 24 h; read-out: LUHMES 24 h EC25 ATP (converted)
One number for each entry, in µM.

# map each compound to its EC25
1. CCc1nn(C)c(C(=O)NCc2ccc(C(C)(C)C)cc2)c1Cl [Tebufenpyrad]
2. CC(C)(C)c1ccc(CCOc2ncnc3ccccc23)cc1 [Fenazaquin]
3. COC(=O)N(OC)c1ccccc1COc1ccn(-c2ccc(Cl)cc2)n1 [Pyraclostrobin]
4. COc1cc2c(cc1OC)[C@@H]1C(=O)c3ccc4c(c3O[C@@H]1CO2)C=CC(C)(C)O4 [Deguelin]

Result:
1. 12.6
2. 10
3. 12.6
4. 10

# map each compound to its EC25
1. Cc1nn(C)c(Oc2ccccc2)c1C=NOCc1ccc(C(=O)OC(C)(C)C)cc1 [Fenpyroximate]
2. CO/N=C(/C(=O)OC)c1ccccc1COc1ccccc1C [Kresoxim-methyl]

Result:
12.6
31.6

Data origin: paper PMC7870626
